# System: MCF7
# ASSAY PROTOCOL: Cytotoxicity in human MCF7 cells assessed as reduction in cell viability incubated for 48 hrs by MTT assay
# Format: functional, cell-based
# COND: MCF7, 48 h
VALUE KIND: IC50

# count of solved cases: 5
CC1(C)[C@@H]2c3c(CCc4ccccc4)cc(O)cc3O[C@]3(C)CC[C@H]1[C@H]23 : 20 µM
CC(C)=CCCC1(C)Oc2cc(O)cc(CCc3ccccc3)c2CC1O (racemic) : > 40 µM
COc1cc(CCc2ccccc2)c2c(c1)OC(C)(C)CC2 : > 40 µM
CC(C)=CCC/C(C)=C/Cc1c(O)cc(O)cc1CCc1ccccc1 : > 40 µM
COC(=O)c1c(CCc2ccccc2)cc2c(c1O)CC(O)C(C)(C)O2 (racemic) : > 40 µM

# input Need IC50, item COC(=O)c1c(CCc2ccccc2)cc2c(c1O)CC(C(C)(C)O)O2 (racemic)
# output > 40 µM

# input Need IC50, item "CC1=CCc2c(O)cc(CCc3ccccc3O)cc2OC1"
# output > 40 µM

# input Need IC50, item "CC1=CC(=O)c2c(O)cc(CCc3ccccc3O)cc2OC1"
# output > 40 µM

# input Need IC50, item "CC1=CCc2c(O)cc(CCc3ccccc3)cc2OC1"
# output > 40 µM

# input Need IC50, item "C=C(C)[C@H]1CC[C@@]2(C)Oc3cc(O)cc(CCc4ccccc4)c3[C@@H]1[C@H]2O"
# output 37 µM
